This collection of values is drawn from paper PMC12723162.

Target: T1, PP1γ catalytic domain (residues 7–300)-H6 (mouse, UniProt P63087 7-300)
T1 construct: mouse PP1γ catalytic domain, residues 7-300; no tag cleavage is described; also called PP1 catalytic domain; protein phosphatase 1; source: E. coli T7 Express lysY/Iq, purified (Ni-NTA, SEC)
T1 sequence (P63087 7-300): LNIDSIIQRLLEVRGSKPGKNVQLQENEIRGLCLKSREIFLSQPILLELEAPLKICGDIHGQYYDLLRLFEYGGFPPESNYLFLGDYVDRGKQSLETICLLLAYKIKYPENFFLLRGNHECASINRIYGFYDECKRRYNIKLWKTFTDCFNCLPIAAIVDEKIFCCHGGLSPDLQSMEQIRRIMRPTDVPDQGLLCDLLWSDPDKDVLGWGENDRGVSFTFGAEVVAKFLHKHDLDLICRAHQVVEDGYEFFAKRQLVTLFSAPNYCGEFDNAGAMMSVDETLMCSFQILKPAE
Assay: fluorescence polarisation; direct titration of PP1γ catalytic domain against FITC-GADD34 peptide in the buffer optimised for pUL21 (Tris pH 8.5 in place of HEPES pH 8)
Conditions: both partners purified
pKd: −log10 of the molar value. Primed or numbered codes have the meaning given here. Where no end group is shown, it is not given here. FITC′ = fluorescein isothiocyanate; Ahx = NCCCCCC(=O)O
readout-kind: pKd

- {FITC′-Ahx}-KARKVRFSEKVTVHFLA (GADD34 (PP1 regulatory subunit 15A), residues 552-568, RVxF and ϕϕ[xF] motifs; also called fluorescent GADD34 peptide; GADD34 peptide; source: synthetic peptide (GenScript, >95% purity)) [GADD34 RVxF+ϕϕ[xF] peptide (residues 552–568), FITC-labelled]: 7.26
